target: Poly [ADP-ribose] polymerase 2 (Homo sapiens); test: Inhibition of PARP-2 in human SUM149PT cells incubated for 48 hrs by HRP-ELISA; type: cell-based
Sequence (Q9UGN5 whole entry): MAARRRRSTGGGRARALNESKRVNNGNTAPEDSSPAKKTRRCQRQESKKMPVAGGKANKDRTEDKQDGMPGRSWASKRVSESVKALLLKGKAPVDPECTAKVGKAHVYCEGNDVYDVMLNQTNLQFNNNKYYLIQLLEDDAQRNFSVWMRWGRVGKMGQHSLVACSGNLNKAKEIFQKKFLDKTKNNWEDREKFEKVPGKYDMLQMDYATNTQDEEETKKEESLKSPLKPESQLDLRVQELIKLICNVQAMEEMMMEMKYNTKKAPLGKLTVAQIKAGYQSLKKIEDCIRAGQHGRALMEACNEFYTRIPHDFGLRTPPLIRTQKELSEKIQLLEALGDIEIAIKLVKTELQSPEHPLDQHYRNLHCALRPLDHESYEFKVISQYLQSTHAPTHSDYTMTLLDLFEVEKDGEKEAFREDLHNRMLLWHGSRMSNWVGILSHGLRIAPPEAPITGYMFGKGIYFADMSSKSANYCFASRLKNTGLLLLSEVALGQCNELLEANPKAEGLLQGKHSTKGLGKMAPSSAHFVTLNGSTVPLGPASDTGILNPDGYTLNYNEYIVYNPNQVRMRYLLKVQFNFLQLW
measured_quantity: IC50 (nM)

{"mol_smiles": "COc1cccc(-c2cc3cc(F)cc(C(N)=O)c3oc2=O)c1", "measured_quantity": "IC50", "measured_value": 6.45}

###

biological target: Poly [ADP-ribose] polymerase 1 (Homo sapiens); experiment: Inhibition of PARP-1 in human SUM149PT cells incubated for 48 hrs by HRP-ELISA
Sequence (P09874 whole entry): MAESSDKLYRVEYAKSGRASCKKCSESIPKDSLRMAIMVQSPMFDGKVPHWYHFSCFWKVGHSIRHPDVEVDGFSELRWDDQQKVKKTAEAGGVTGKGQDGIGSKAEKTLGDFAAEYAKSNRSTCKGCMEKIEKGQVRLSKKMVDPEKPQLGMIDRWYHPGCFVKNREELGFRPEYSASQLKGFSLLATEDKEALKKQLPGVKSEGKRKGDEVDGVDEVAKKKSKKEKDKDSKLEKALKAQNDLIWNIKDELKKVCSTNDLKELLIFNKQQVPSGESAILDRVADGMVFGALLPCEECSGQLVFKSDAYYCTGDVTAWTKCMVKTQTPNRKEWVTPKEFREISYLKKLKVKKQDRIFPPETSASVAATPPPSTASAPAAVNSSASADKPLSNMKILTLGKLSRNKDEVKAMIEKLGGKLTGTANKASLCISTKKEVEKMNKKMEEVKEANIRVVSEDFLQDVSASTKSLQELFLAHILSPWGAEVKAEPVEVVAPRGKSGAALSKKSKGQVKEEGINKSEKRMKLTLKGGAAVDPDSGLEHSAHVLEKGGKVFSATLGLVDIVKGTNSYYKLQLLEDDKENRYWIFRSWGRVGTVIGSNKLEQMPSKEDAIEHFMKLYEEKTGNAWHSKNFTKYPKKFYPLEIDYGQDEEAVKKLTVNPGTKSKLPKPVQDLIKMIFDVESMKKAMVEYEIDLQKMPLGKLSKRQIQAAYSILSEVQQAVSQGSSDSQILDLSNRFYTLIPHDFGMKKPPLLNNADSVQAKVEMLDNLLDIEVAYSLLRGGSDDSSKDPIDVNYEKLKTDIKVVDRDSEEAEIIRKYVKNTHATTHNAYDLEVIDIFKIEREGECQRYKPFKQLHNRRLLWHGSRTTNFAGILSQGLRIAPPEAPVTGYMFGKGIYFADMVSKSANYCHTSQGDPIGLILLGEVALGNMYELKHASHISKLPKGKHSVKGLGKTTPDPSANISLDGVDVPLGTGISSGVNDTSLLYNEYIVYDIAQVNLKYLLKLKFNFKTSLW
measured_quantity: IC50 (nM)

{"mol_smiles": "COc1cccc(-c2cc3cc(F)cc(C(N)=O)c3oc2=O)c1", "measured_quantity": "IC50", "unit_info": "nM", "measured_value": 2.53}
